# Tested on: Escherichia coli ATCC 25922
# Format: cell-based
# Condition details: ATCC 25922, 2 h
Ends that are not written are not given here.
Property name: log10(minimum inhibition concentration) (log10 of the value in µg/mL)
Reminder: these figures are log10 of reported minimum inhibition concentration, in µg/mL before transformation.

KYIVYKIRWARKRRKALK-OH [BOL-87, KYIVYKIRWARKRRKALK]: 1.27
YIVYKIRSAWKRRKALK-OH [BOL-44, YIVYKIRSAWKRRKALK]: 2.30
YIVYKIRWAWKRSKALK-OH [BOL-47, YIVYKIRWAWKRSKALK]: 1.27
YIVYKIRSAWKRSKALK-OH [BOL-29, YIVYKIRSAWKRSKALK]: 0.97
YIVYKIRFAFKRRKAL [BOL-92, YIVYKIRFAFKRRKAL]: 1.27

Item under review: YIVYKRRSADKRRKALK-OH [BOL-12, YIVYKRRSADKRRKALK] . Reported log10(minimum inhibition concentration)?
1.27

Can you handle KYIVYKIRSAWKRRKALK-OH [BOL-86, KYIVYKIRSAWKRRKALK] next?
2.18

Can you handle YIRYKIRSARKRRKALK-OH [BOL-14, YIRYKIRSARKRRKALK] next?
1.57

Can you handle YIVYKIRWARKRRKALK-OH [BOL-50, YIVYKIRWARKRRKALK] next?
1.70

Can you handle YIRYKRRSADKRRKALK-OH [BOL-16, YIRYKRRSADKRRKALK] next?
1.88
